target: c-kit (Homo sapiens (Human), UniProt P10721); test: Mo7e cell proliferation assay (SCF dependent proliferation); format: cell-based; conditions: Mo7e cells stimulated with human recombinant SCF, 48 hours, 1% FBS
Sequence (P10721 26-976): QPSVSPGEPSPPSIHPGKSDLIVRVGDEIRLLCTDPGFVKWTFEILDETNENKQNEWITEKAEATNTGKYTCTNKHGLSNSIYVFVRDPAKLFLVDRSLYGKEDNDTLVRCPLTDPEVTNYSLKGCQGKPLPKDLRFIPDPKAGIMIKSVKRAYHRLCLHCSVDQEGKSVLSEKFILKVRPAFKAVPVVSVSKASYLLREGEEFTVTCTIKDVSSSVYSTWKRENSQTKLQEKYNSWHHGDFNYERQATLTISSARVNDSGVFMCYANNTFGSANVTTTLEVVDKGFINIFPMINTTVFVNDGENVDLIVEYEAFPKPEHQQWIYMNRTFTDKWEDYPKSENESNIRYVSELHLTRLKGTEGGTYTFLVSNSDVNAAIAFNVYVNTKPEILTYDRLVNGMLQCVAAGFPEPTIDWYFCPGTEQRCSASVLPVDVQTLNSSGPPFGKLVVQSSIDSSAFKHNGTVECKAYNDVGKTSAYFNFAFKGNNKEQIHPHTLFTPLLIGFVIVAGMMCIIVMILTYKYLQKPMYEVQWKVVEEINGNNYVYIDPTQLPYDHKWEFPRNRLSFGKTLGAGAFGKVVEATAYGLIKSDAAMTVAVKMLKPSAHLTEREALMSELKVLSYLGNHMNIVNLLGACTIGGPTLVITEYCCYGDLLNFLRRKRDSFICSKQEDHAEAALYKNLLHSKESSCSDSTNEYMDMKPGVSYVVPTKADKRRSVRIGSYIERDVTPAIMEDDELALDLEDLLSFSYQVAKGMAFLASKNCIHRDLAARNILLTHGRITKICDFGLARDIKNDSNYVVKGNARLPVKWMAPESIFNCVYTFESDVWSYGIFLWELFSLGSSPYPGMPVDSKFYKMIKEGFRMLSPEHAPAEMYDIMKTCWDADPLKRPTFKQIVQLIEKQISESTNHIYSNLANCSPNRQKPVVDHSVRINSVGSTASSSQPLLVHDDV
pIC50: −log10 of the molar value.
Values of pIC50 greater than or equal to 7 map to yes; values below map to no.

Qu. // inclusive: pIC50 at least 7? input: `Cc1ccc(-c2nc(C3CC(F)(F)C3)no2)cc1NC(=O)c1cnc2ccccn12`
Ans. yes

Qu. Record `Cc1ccc(-c2noc(C3CC(F)(F)C3)n2)cc1NC(=O)c1cnc2ccc(-c3cnn(CCN4CCOCC4)c3)cn12` ; criterion: pIC50 no lower than 7. Met?
Ans. yes

Qu. Assess whether reported pIC50 for `Cc1ccc(-c2noc([C@H]3C[C@](O)(C(F)(F)F)C3)n2)cc1NC(=O)c1cnc2ccc(F)cn12` sits at 7 or higher.
Ans. yes

Qu. Please indicate if the recorded pIC50 for CCON=C1CC(c2nc(-c3ccc(C)c(NC(=O)c4cnc5ccccn45)c3)no2)C1 (centres unmarked) meets or exceeds 7.
Ans. yes

Qu. Textbook exercise: given the entry `Cc1ccc(-c2noc(C3CC(F)(F)C3)n2)cc1NC(=O)c1cnc2ccc(-c3cnn(C)c3)cn12` , state whether its pIC50 is greater than or equal to 7.
Ans. yes

Qu. Please indicate if the recorded pIC50 for `Cc1ccc(-c2noc(C3(N)CCC3)n2)cc1NC(=O)c1cnc2ccccn12` meets or exceeds 7.
Ans. no

Qu. Threshold query (pIC50 >= 7) on `Cc1ccc(-c2noc(C3CC(F)(F)C3)n2)cc1NC(=O)c1cnc2cc(OC(F)F)ccn12`
Ans. no

Qu. Please tell me: is the compound `COC(=O)NC1(c2nc(-c3ccc(C)c(NC(=O)c4cnc5ccccn45)c3)no2)CC1` at or over 7 in terms of pIC50?
Ans. yes

Qu. Can `Cc1ccc(-c2noc(C3CC(F)(F)C3)n2)cc1NC(=O)c1cnc2ccc(-c3ccn(C)n3)cn12` be said to have pIC50 at or above 7?
Ans. yes

Qu. hey, is pIC50 for this one >= 7? Cc1ccc(-c2noc(C3CC4(C3)OC[C@@H](C)O4)n2)cc1NC(=O)c1cnc2ccccn12 (some centres unmarked)
Ans. yes

Qu. Quick check, pIC50 >= 7? Cc1ccc(-c2noc(C3CC(=NOCC4CC4)C3)n2)cc1NC(=O)c1cnc2ccccn12 (centres unmarked)
Ans. yes

Qu. Is the recorded value of pIC50 equal to or greater than 7 for this compound? Cc1ccc(-c2noc(C3CC(=CCCO)C3)n2)cc1NC(=O)c1cnc2ccccn12 (centres unmarked)
Ans. yes

Qu. Has `Cc1ccc(-c2noc([C@H]3C[C@@H](N4CCOCC4)C3)n2)cc1NC(=O)c1cnc2ccccn12` a recorded pIC50 greater than or equal to 7?
Ans. no

Qu. Entry `Cc1ccc(-c2noc(C3CC(F)(F)C3)n2)cc1NC(=O)c1cnc2ccc(CN3CCN(CCO)CC3)cn12` : is its pIC50 no less than 7?
Ans. no

Value source: patent US9199981B2
